All values here come from patent US20250277059A1.

studyTarget: human TMPRSS2 (Homo sapiens, UniProt O15393)
Sequence (O15393 106-492 limits assumed): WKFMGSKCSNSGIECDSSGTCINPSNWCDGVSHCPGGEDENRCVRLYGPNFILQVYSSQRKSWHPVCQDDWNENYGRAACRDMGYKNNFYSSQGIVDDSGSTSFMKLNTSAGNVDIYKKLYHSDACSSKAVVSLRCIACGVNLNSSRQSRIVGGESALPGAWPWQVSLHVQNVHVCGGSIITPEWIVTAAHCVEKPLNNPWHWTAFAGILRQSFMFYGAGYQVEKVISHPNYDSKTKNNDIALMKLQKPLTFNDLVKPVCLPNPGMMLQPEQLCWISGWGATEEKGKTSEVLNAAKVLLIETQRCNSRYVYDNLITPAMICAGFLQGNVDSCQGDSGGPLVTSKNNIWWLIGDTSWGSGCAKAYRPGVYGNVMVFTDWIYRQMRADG
procedureSummary: BIACore binding assay of anti-TMPRSS2 antibodies
details: Table 1, mouse mAbs, 25° C.
// kd lookup, one value per entry

[
  {
    "molecule": "1831_15: mouse anti-human TMPRSS2 monoclonal antibody, IgG2b κ; VH SEQ ID NO: 98, VL SEQ ID NO: 99 (antibody, V domains shown, mouse IgG2b kappa constant regions; 1831_15 VH; 1831_15 VL) VH: QVQLQQPGAELVKPGASVKLSCKASGYSFTTYWMHWVRQRPGQGLEWIGIIHPNSGTTNYNEKFKSKASLTVDKSSSTAYMQLSSLTSEDSAVYYCARLLWDYFDYWGQGTTLTVSS VL: DIVMSQSPSSLAVSAGEKVTMSCKSSQSLLNSRTRKNFLAWYQQKPGQSPKLLIYWASTRESGVPDRFTGSGSGTDFTLTISSVQAEDLAVYYCKQSYNLYTFGGGTKLEIK",
    "kd (s⁻¹)": 0.000236
  },
  {
    "molecule": "2114_16: mouse anti-human TMPRSS2 monoclonal antibody, IgG2c λ; VH SEQ ID NO: 106, VL SEQ ID NO: 107 (antibody, V domains shown, mouse IgG2c lambda constant regions; 2114_16 VH; 2114_16 VL) VH: EVQLQQSGPELVKPGASVKISCKASGYTFTDYYMNWVKRRHGKSLEWIGNINPNNGGTSYNQKFKGKATLTVDKSSSTAYMELRSLTSEDSVVYYCAREGDLFPFAYWGQGTLVTVSA VL: QAVVTQESALTTSPGETVTLTCRSSIGTVTTSNFANWVQEKPDHLFTGLIGASNNRAPGVPARFSGSLIGDKAALTITGAQTEDEAIYFCALWFSNHWVFGGGTKLTVL",
    "kd (s⁻¹)": 0.000591
  },
  {
    "molecule": "1864_10: mouse anti-human TMPRSS2 monoclonal antibody, IgG2b κ; VH SEQ ID NO: 17, VL SEQ ID NO: 18 (antibody, V domains shown, mouse IgG2b kappa constant regions; 1864_10 VH; 1864_10 VL) VH: QVQLQQSGPALVKPGASLKISCEASGYTFTYYSINWVKQRPGQGLEWIGWIFPGSGSTYYNEKFKGKATLTIDKSSSTAYMLLSSLTSEDSAVYFCARSDYGSAYGYFDVWGTGTTVTVSS VL: DIVLTQSPASLAVSLGQRATISCRASKSVSTSGYSYMHWYQQKPGQPPKLLIYLASNLESGVPARFSGSGSGTDFTLNIHPVEEEDAATYYCQHSRDLPLTFGAGTKLELK",
    "kd (s⁻¹)": 0.002894
  },
  {
    "molecule": "2020_12: mouse anti-human TMPRSS2 monoclonal antibody, IgG2c κ; VH SEQ ID NO: 25, VL SEQ ID NO: 26 (antibody, V domains shown, mouse IgG2c kappa constant regions; 2020_12 VH; 2020_12 VL) VH: QVQLQQPGAELAKPGASVKLSCKASGYTFTSYWMHWVKQRPGQGLEWIGLIPPNSGSSNYNEKFKSKATLTVDKSSRTAYMQLSSLTSEDSAVYYCARWDYGSSYGYFDVWGTGTTVTVSS VL: DIVLTQSPASLAVSLGQRATISCRASESVSTSGYSYMHWYQQKPGQPPKLLIYLASNLESGVPVRFSGSGSGTDFTLNIHPVEEEDAATYYCQHSRELPPTFGAGTKLELK",
    "kd (s⁻¹)": 0.001759
  }
]
